biological target: Phosphoglycerate kinase, glycosomal (Trypanosoma brucei brucei) (UniProt P07378); experiment: qHTS Assay to Find Inhibitors of Phosphoglycerate Kinase; conditions: PGK/GAPDH coupled, Kinase-Glo luminescence, 60 min; series mostly up to 57.5 µM; note: nearly all actives have a fitted effect of over 60% in size; note: potency is the fitted concentration of half-maximal effect
Sequence (P07378 whole entry, looked up): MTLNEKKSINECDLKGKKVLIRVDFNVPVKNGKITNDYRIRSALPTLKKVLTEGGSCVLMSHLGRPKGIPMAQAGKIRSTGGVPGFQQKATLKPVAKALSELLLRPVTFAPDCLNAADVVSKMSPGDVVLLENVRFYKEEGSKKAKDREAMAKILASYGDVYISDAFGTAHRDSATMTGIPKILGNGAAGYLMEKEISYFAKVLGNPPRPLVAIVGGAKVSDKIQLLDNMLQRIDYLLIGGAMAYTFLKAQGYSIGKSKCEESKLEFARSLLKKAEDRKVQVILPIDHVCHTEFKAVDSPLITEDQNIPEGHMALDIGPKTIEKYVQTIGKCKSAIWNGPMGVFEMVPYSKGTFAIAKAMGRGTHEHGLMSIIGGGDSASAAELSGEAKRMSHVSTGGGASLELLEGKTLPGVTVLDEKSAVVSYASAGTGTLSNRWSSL
Among all 380,000 compounds or so, about 170 (0.045%) were called active. The list comes from a sample in which actives are over-represented; it also holds close analogues and randomly drawn compounds.
observed-property: Potency

molecule: COc1ccc2c(c1)C=C(C(=O)NCc1cc(Br)ccc1OC)CO2
observed-property: Potency
result: inactive
--
molecule: COC(=O)c1c(NC(=O)C(C)Oc2ccc(Cl)c(C)c2)sc(C)c1C (stereo unspecified)
observed-property: Potency
result: inactive
--
molecule: Nc1ccc2nc3c(=O)[nH]c(=S)[nH]c3nc2c1
observed-property: Potency
result: 2.51 µM (active)
--
molecule: Cc1c(CC(=O)N2CCN(C(=O)C3COc4ccccc4O3)CC2)c(=O)oc2c(O)c(O)ccc12 (stereo unspecified)
observed-property: Potency
result: 8.91 µM (active)
--
molecule: COc1ccc(-c2cn3c(C)c(C(=O)Nc4cc(C)cc(C)c4)sc3n2)cc1
observed-property: Potency
result: inactive
--
molecule: COc1ccc(-c2cn3c(n2)sc2cc(C(=O)Nc4ccc(F)cc4)ccc23)cc1
observed-property: Potency
result: inactive
--
molecule: CN(Cc1ccccc1)c1ncnc2onc(-c3ccc(F)cc3)c12
observed-property: Potency
result: inactive
--
molecule: O=C(c1cnn(-c2ccc(F)cc2)c1-n1cccc1)N1CCN(c2ccc(F)cc2)CC1
observed-property: Potency
result: inactive
--
molecule: COc1cc(CNC(=O)c2cc3n(n2)CCCN(Cc2cccc(F)c2)C3=O)cc(OC)c1OC
observed-property: Potency
result: inactive
--
molecule: Cc1ccc(C2CCN(C(=O)c3cnn(-c4ccccc4Cl)c3C3CCN(C(=O)OC(C)(C)C)CC3)C2)cc1 (stereo unspecified)
observed-property: Potency
result: inactive
--
molecule: COc1cc(NS(=O)(=O)c2ccc3c(c2)OCC(C(=O)N2CCCC2)O3)cc(OC)c1 (stereo unspecified)
observed-property: Potency
result: inactive
